# system: C3R/C86S S100A4 (Homo sapiens, UniProt P26447, C3R/C86S)
# Sequence (P26447 2-101 C3R/C86S, one chain of several): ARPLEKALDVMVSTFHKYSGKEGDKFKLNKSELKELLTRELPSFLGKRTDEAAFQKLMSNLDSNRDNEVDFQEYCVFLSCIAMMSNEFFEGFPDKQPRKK
# protocol-summary: competitive fluorescence anisotropy against FITC-MIIA
# Format: binding
reported-endpoint: IC50 (µM)
Reply with just the number (in µM).

Request: Tell me its IC50 given O=C1C(SCCO)=C(SCCO)C(=O)c2ccccc21 as the entry.
Result: 5.7

---

# system: S100A4 (Homo sapiens)
# Sequence (P26447 2-101): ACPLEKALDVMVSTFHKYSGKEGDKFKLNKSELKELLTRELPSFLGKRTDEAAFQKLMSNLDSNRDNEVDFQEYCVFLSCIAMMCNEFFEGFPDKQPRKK
# protocol-summary: LC-ESI MS of covalent adducts
# Type: binding
reported-endpoint: IC50
In your response, the unit should come after the numeric value.

Request: Tell me its IC50 given O=C1C(SCCO)=C(SCCO)C(=O)c2ccccc21 as the entry.
Result: 1.8 µM

---

# system: C3R/C86S S100A4 (Homo sapiens, UniProt P26447, C3R/C86S)
# protocol-summary: competitive fluorescence anisotropy against FITC-MIIA
# Type: binding
reported-endpoint: pIC50
// scale note: pIC50 = -log10(conc_M); give the bare number

Request: State, for C3R/C86S S100A4 (Homo sapiens, UniProt P26447, C3R/C86S), measured pIC50 of the compound listed here: CC1=C(SCCO)C(=O)c2ccccc2C1=O
Result: 5.28

All values here come from paper PMC3220277.
